Cited source: patent US20180037654A1

# experimental.system: human CTLA-4 (Y166G and Y183G) expressed on CHO-K1.hCTLA-4 cells (human, UniProt P16410 36-223)
# Sequence (P16410 36-223 Y201G/Y218G limits assumed): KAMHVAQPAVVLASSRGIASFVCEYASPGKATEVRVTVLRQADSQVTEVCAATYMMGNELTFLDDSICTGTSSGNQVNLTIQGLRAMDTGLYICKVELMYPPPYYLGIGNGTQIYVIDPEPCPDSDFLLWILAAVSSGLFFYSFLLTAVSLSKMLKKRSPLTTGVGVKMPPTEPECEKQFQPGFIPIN
# assay.comment: CELISA on CHO-K1.hCTLA-4 cells
Examples of binders with documented EC50 follow.
test.readout: EC50 (nM)

[[record]]
binder = "hCTLA4.27H4L3 (antibody, human IgG4 S228P, kappa, V domains shown, Humanized, human IgG4 (S228P) kappa; H4 read as hCTLA4.27VH4, L3 as hCTLA4.27VL3) VH: EVQLVQSGAEVKKPGASVKVSCKASGYSFTTYWMNWVRQAPGQGLEWMGMIHPSDSETSLNQAFKDRVTMTRDTSTSTVYMELSSLRSEDTAVYYCARMGRRNPYYFDYWGQGTLVTVSS VL: DIQMTQSPSSLSASVGDTVTITCRPSENLYTNLAWYQQKPGKAPKLLLYGATNLADGVPSRFSGSGSGTDYTLTISSLQSEDFATYYCQHLWGTPFTFGQGTKLEIKR"
number = 0.051

[[record]]
binder = "hCTLA4.27H5L3 (antibody, human IgG4 S228P, kappa, V domains shown, Humanized, human IgG4 (S228P) kappa; H5 read as hCTLA4.27VH5, L3 as hCTLA4.27VL3) VH: EVQLLQAGAVLARPGTSVKISCKASGYSFTTYWMNWVKQRPGKGLEWIGMIHPSDSETSLNQAFKDKAKLTAATSASIAYLEFSSLTNEDSAVYYCARIGRRNPYYFDYWGQGTLVTVSS VL: DIQMTQSPSSLSASVGDTVTITCRPSENLYTNLAWYQQKPGKAPKLLLYGATNLADGVPSRFSGSGSGTDYTLTISSLQSEDFATYYCQHLWGTPFTFGQGTKLEIKR"
number = 0.042

[[record]]
binder = "hCTLA4.27H6L5 (antibody, human IgG4 S228P, kappa, V domains shown, Humanized, human IgG4 (S228P) kappa; H6 read as hCTLA4.27VH6, L5 as hCTLA4.27VL5) VH: EVQLLESGPELVRPGSSVKISCKASGYSFTTYWMNWVKQRPGKGLEWIGMIHPSDSETSLNQAFKDKVKLTAATSASIAYLEFSSLRNEDSAVYYCARMGRRNPYYFDYWGQGTLVTVSS VL: DIQMTQAPSSLSASVGDRVTITCRPSENLYTNLAWYQQKPGKAPKLLLYGATNLADGVPSRFSGSGSGTDYTLTISSLQAEDFATYYCQHLWGTPFTFGGGTKLEIKR"
number = 0.036

